study-system: human cKit kinase (Homo sapiens (Human), UniProt P10721)
Sequence (P10721 26-976): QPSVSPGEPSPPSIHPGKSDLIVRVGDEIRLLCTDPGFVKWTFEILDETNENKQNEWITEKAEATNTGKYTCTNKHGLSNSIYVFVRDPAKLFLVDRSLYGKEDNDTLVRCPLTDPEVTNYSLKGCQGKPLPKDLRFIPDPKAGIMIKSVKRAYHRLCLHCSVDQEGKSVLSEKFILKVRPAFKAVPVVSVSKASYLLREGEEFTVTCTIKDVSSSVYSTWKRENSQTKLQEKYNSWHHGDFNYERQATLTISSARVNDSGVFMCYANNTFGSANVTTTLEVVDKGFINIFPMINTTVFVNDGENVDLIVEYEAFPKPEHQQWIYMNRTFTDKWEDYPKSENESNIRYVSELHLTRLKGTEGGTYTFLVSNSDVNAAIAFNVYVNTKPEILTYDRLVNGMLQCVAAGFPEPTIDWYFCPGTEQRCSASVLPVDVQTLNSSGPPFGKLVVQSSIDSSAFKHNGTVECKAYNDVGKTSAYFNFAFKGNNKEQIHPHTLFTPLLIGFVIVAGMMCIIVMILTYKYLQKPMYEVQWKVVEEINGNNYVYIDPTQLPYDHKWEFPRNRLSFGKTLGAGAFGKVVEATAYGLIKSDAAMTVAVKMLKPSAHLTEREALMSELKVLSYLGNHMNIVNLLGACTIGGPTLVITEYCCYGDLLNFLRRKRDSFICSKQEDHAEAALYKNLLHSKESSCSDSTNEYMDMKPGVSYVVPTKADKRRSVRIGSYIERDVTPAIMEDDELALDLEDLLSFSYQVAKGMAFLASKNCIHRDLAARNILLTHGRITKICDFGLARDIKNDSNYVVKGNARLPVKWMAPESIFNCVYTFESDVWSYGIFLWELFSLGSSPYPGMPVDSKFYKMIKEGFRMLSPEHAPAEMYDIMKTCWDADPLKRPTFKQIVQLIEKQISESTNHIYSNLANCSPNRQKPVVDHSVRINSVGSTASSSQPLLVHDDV
procedure-text: cKit enzyme assay (LANCE, Eurofins CEREP)
condition-label: human recombinant enzyme, 50 μM ATP; geometric mean of at least n=2, * = single experiment
pIC50: −log10 of the molar value.
property-name: pIC50

Solved entries:
molecule	pIC50
COc1cc2nn([C@H]3CC[C@H](N4CCN(C)C4=O)CC3)cc2cc1C(=O)Nc1cccn(C)c1=O [Example 19]	4.97
COc1cc2nn([C@H]3CC[C@H](N(C)C(=O)[C@@H](C)O)CC3)cc2cc1C(=O)Nc1cccn(-c2cnn(C)c2)c1=O [Example 15]	5.57
COc1cc2nn(C3CCC(c4cccnn4)CC3)cc2cc1C(=O)Nc1cccn(C)c1=O (single isomer, unassigned) [Example 24]	4.06
COc1cc2nn([C@H]3CC[C@H](N(C)C(=O)[C@@H](C)O)CC3)cc2cc1C(=O)Nc1cccn(CF)c1=O [Example 9]	5.48

P: COc1cc2nn([C@@H]3CCC(N(C)C(C)=O)C[C@H]3C)cc2cc1C(=O)Nc1cccn(C)c1=O (single isomer, unassigned) [Example 3]
Q: COc1cc2nn([C@H]3CC[C@H](N(C)C(=O)[C@@H](C)O)CC3)cc2cc1C(=O)Nc1cccn(-c2cn(C)nn2)c1=O [Example 16]
Lab note: check whether P or Q has the lower measured pIC50. // caller expects the label of the chosen entry
P
(P: 4.86, Q: 5.85)
